- STUDY TARGET: UniProtKB P49840
- PROTOCOL NOTES: GSK3α TR-FRET kinase assay
- Type: biochemical
- RUN CONDITIONS: 1 nM GSK3α, 4 μM ATP, 30 minute preincubation; geometric mean; read-out: GSK3-A TR-FRET BIOCHEMICAL (TR-FRET); GMean; IC50
pIC50: −log10 of the molar value.
Could you please report measured pIC50 for the items listed next?

Using the record for CC1(C)CC(=O)C2=C(C1)Nc1n[nH]c(Br)c1C21CCNc2ccccc21 (stereo not drawn) , report its pIC50. 5.30 to 6.00

Using the record for CC[C@@]1(c2cccc(-c3c(C)nn(C)c3C)c2)C2=C(CC(C)(C)NC2=O)Nc2n[nH]cc21 , report its pIC50. 5.30 to 6.00

Using the record for CCC1(c2cccc(-c3cnn(C)c3)c2)C2=C(CC(C)(C)CC2=O)Nc2n[nH]c(C(F)(F)F)c21 (stereo not drawn) [Compound 801445] , report its pIC50. ≥ 7.00

Using the record for CC1(C)CC(=O)C2=C(C1)Nc1n[nH]cc1[C@@]2(C)c1cccc(-c2ccccc2)c1 , report its pIC50. < 5.30

Using the record for CCC1(c2cccc(-c3cccnc3)c2)C2=C(CC(C)(C)CC2=O)Nc2n[nH]cc21 (stereo not drawn) , report its pIC50. ≥ 7.00

Using the record for CCC1(c2cccc(-c3c(Cl)cncc3Cl)c2)C2=C(CC(C)(C)NC2=O)Nc2n[nH]cc21 (stereo not drawn) , report its pIC50. ≥ 7.00

Using the record for CC[C@@]1(c2ccccc2)C2=C(C[C@@](C)(COC)CC2=O)Nc2n[nH]cc21 , report its pIC50. 6.00 to 7.00

Using the record for CC1(C)CC(=O)C2=C(C1)Nc1n[nH]cc1C2(c1ccccc1)c1ccccc1 , report its pIC50. 5.30 to 6.00

Using the record for CC[C@@]1(c2cccc(S(=O)(=O)C3CC3)c2)C2=C(CC(C)(C)NC2=O)Nc2n[nH]cc21 , report its pIC50. ≥ 7.00

Using the record for CCC1(c2cccc(-c3ccnc(C)c3)c2)C2=C(CC(C)(C)NC2=O)Nc2n[nH]c(C)c21 (stereo not drawn) [Compound 947798] , report its pIC50. ≥ 7.00

Using the record for CC1(C)CC(=O)C2=C(C1)Nc1n[nH]c(CCC(F)(F)F)c1C21CCc2c(F)cccc21 (stereo not drawn) , report its pIC50. 5.30 to 6.00

Using the record for CC1(C)CC(=O)C2=C(C1)Nc1n[nH]c(CC(F)(F)F)c1C21CCc2c(F)cccc21 (stereo not drawn) [Compound 816837] , report its pIC50. 5.30 to 6.00

Using the record for CC[C@@]1(c2cccc(-c3ccncc3)c2)C2=C(CC(C)(C)CC2=O)Nc2n[nH]cc21 , report its pIC50. < 5.30

Using the record for CCC1(c2cccc(CN3CCCCC3)c2)C2=C(CC(C)(C)CC2=O)Nc2n[nH]cc21 (stereo not drawn) , report its pIC50. 5.30 to 6.00

Using the record for CCC1(c2cccc(Br)c2)C2=C(CC(C)(C)CC2=O)Nc2n[nH]c(C(F)(F)F)c21 (stereo not drawn) [Compound 810365] , report its pIC50. < 5.78

Using the record for CC[C@@]1(c2ccccc2)C2=C(CC(C)(C)[C@@H](F)C2=O)Nc2n[nH]cc21 , report its pIC50. ≥ 7.00

Using the record for CC[C@]1(c2ccccc2)C2=C(Nc3n[nH]cc31)[C@@H](C)C[C@H](C)C2=O , report its pIC50. 6.00 to 7.00

Using the record for CCC1(c2cccc(-n3ccnc3)c2)C2=C(CC(C)(C)CC2=O)Nc2n[nH]cc21 (stereo not drawn) [Compound 874531] , report its pIC50. ≥ 7.00

Using the record for CCC1(c2cccc(C(F)(F)F)c2)C2=C(CC(C)CC2=O)Nc2n[nH]cc21 (stereo not drawn) [Compound 810451] , report its pIC50. ≥ 7.00

Using the record for CCC1(c2ccn(C)n2)C2=C(CC(C)(C)CC2=O)Nc2n[nH]cc21 (stereo not drawn) , report its pIC50. 5.30 to 6.00

Using the record for CC1(C)CC(=O)C2=C(C1)Nc1n[nH]cc1[C@]21CCc2c(F)cccc21 , report its pIC50. ≥ 7.00

Using the record for CCC1(c2cccc(N(C)c3ccncc3)c2)C2=C(CC(C)(C)CC2=O)Nc2n[nH]cc21 (stereo not drawn) [Compound 853910] , report its pIC50. 6.00 to 7.00

Using the record for CCC1(c2cccc(SC)c2)C2=C(CC(C)(C)CC2=O)Nc2n[nH]cc21 (stereo not drawn) , report its pIC50. ≥ 7.00

Using the record for CCC1(c2cccc(C(F)(F)F)c2)C2=C(CC(C)CC2=O)Nc2n[nH]cc21 (stereo not drawn) [Compound 810452] , report its pIC50. 6.00 to 7.00

###

- STUDY TARGET: GSK3b (GST-full length GSK3b) (Homo sapiens (Human), UniProt P49841)
- Sequence (P49841 whole entry): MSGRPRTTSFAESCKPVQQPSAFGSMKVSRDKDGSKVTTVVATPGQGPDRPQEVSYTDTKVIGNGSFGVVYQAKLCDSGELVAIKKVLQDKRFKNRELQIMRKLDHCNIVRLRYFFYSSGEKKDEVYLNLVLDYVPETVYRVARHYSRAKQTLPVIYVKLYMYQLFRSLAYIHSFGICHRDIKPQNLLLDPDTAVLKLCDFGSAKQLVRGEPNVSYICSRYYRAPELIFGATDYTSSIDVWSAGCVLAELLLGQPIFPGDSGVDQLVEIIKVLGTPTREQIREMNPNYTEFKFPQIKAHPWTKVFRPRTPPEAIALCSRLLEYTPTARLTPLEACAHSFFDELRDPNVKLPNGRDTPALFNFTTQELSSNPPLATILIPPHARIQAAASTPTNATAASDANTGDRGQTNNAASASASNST
- PROTOCOL NOTES: GSK3b TR-FRET kinase assay
- Type: biochemical
- RUN CONDITIONS: 1 nM GSK3b, 2 μM ATP, 30 minute preincubation; geometric mean; read-out: GSK3-B TR-FRET BIOCHEMICAL (TR-FRET); GMean; IC50
ENDPOINT: IC50

Enter reported IC50 observed with GSK3b (GST-full length GSK3b) (Homo sapiens (Human), UniProt P49841) for CCC1(c2cccc(N3CCCC3)c2)C2=C(CC(C)(C)CC2=O)Nc2n[nH]cc21 (centres unmarked) 100 to 1000 nM

Enter reported IC50 observed with GSK3b (GST-full length GSK3b) (Homo sapiens (Human), UniProt P49841) for CCC1(c2cccc(-c3cnn(C)c3C(F)(F)F)c2)C2=C(CC(C)(C)NC2=O)Nc2n[nH]cc21 (centres unmarked) > 5000 nM

Enter reported IC50 observed with GSK3b (GST-full length GSK3b) (Homo sapiens (Human), UniProt P49841) for CC[C@]1(c2ccccc2)C2=C(CC3(CC3)CC2=O)Nc2n[nH]cc21 > 5000 nM

Enter reported IC50 observed with GSK3b (GST-full length GSK3b) (Homo sapiens (Human), UniProt P49841) for CCC1(c2cccc(-c3cn(C)nc3C)c2)C2=C(CC(C)(C)NC2=O)Nc2n[nH]c(F)c21 (centres unmarked) ≤ 100 nM

Enter reported IC50 observed with GSK3b (GST-full length GSK3b) (Homo sapiens (Human), UniProt P49841) for CCC1(c2cccc(-c3ccnn3C)c2)C2=C(CC(C)(COC)NC2=O)Nc2n[nH]cc21 (centres unmarked) [Compound 947907] > 5000 nM

Enter reported IC50 observed with GSK3b (GST-full length GSK3b) (Homo sapiens (Human), UniProt P49841) for CCC1(c2cccc(-c3ccnn3C)c2)C2=C(CC3(CCOCC3)NC2=O)Nc2n[nH]cc21 (centres unmarked) 100 to 1000 nM

Enter reported IC50 observed with GSK3b (GST-full length GSK3b) (Homo sapiens (Human), UniProt P49841) for CCC1(c2cccc(N(C)c3cccnc3)c2)C2=C(CC(C)(C)CC2=O)Nc2n[nH]cc21 (centres unmarked) [Compound 874298] ≤ 100 nM

Enter reported IC50 observed with GSK3b (GST-full length GSK3b) (Homo sapiens (Human), UniProt P49841) for CC[C@@]1(c2ccccc2)C2=C(C[C@]3(CCOC3)CC2=O)Nc2n[nH]cc21 > 5000 nM

###

- STUDY TARGET: GSK3α (GST-full length GSK3α) (Homo sapiens (Human), UniProt P49840)
- Sequence (P49840 whole entry): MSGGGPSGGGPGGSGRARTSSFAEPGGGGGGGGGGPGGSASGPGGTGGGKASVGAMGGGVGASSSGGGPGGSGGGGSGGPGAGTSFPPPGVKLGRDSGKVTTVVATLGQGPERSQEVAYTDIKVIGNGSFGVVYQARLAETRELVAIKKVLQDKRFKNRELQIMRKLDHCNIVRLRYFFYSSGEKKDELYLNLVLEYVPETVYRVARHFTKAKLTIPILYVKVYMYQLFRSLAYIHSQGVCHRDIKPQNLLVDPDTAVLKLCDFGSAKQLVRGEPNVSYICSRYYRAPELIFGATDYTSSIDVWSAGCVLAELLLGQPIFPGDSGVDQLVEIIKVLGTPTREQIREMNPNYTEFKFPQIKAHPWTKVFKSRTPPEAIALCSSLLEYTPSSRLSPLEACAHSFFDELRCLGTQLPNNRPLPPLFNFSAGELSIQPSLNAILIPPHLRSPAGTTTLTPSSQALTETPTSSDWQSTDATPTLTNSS
- PROTOCOL NOTES: GSK3α TR-FRET kinase assay
- Type: biochemical
- RUN CONDITIONS: 1 nM GSK3α, 4 μM ATP, 30 minute preincubation; geometric mean; read-out: GSK3-A TR-FRET BIOCHEMICAL (TR-FRET); GMean; IC50
ENDPOINT: IC50

Enter reported IC50 observed with GSK3α (GST-full length GSK3α) (Homo sapiens (Human), UniProt P49840) for CCC1(c2cccc(-c3ccnc(C)c3)c2)C2=C(CC(C)(C)CC2=O)Nc2n[nH]cc21 (centres unmarked) [Compound 840857] ≤ 100 nM

Enter reported IC50 observed with GSK3α (GST-full length GSK3α) (Homo sapiens (Human), UniProt P49840) for CC[C@]1(c2cccc(-c3ccncc3C)c2)C2=C(CC3(CCC3)NC2=O)Nc2n[nH]cc21 [Compound 948512] ≤ 100 nM

Enter reported IC50 observed with GSK3α (GST-full length GSK3α) (Homo sapiens (Human), UniProt P49840) for CCC1(c2cccc(-c3ccncc3C)c2)C2=C(CC(C)(C)NC2=O)Nc2n[nH]c(C(F)(F)F)c21 (centres unmarked) [Compound 947404] ≤ 100 nM

Enter reported IC50 observed with GSK3α (GST-full length GSK3α) (Homo sapiens (Human), UniProt P49840) for CCC1(c2cccc(S(C)(=O)=O)c2)C2=C(CC(C)(C)CC2=O)Nc2n[nH]cc21 (centres unmarked) [Compound 819561] ≤ 100 nM

Enter reported IC50 observed with GSK3α (GST-full length GSK3α) (Homo sapiens (Human), UniProt P49840) for CCC1(c2ccc(F)cc2)C2=C(CC(C)(C)CC2=O)Nc2n[nH]cc21 (centres unmarked) [Compound 772965] 1000 to 5000 nM

Enter reported IC50 observed with GSK3α (GST-full length GSK3α) (Homo sapiens (Human), UniProt P49840) for CCC1(c2cccc(-c3ccnc(C)c3)c2)C2=C(CC(C)(C)N(C)C2=O)Nc2n[nH]cc21 (centres unmarked) [Compound 949004] ≤ 100 nM

Enter reported IC50 observed with GSK3α (GST-full length GSK3α) (Homo sapiens (Human), UniProt P49840) for CCC1(c2cccc(Br)c2)C2=C(CC(C)(C)C(F)C2=O)Nc2n[nH]cc21 (centres unmarked) [Compound 835315] ≤ 100 nM

Enter reported IC50 observed with GSK3α (GST-full length GSK3α) (Homo sapiens (Human), UniProt P49840) for CCC1(c2cccc(Br)c2)C2=C(CC(C)(C)CC2=O)Nc2n[nH]cc21 (centres unmarked) [Compound 790734] 100 to 1000 nM

Enter reported IC50 observed with GSK3α (GST-full length GSK3α) (Homo sapiens (Human), UniProt P49840) for CCC1(c2ccc(C)cc2)C2=C(CC(C)(C)CC2=O)Nc2n[nH]cc21 (centres unmarked) [Compound 785739] 100 to 1000 nM

Enter reported IC50 observed with GSK3α (GST-full length GSK3α) (Homo sapiens (Human), UniProt P49840) for CC[C@]1(c2cccc(C(F)(F)F)c2)C2=C(CCN(c3ccc(C)cc3)C2=O)Nc2n[nH]cc21 [Compound 949119] 1000 to 5000 nM

Enter reported IC50 observed with GSK3α (GST-full length GSK3α) (Homo sapiens (Human), UniProt P49840) for CC[C@]1(c2ccccc2)C2=C(C[C@@]3(CCCOC3)CC2=O)Nc2n[nH]cc21 [Compound 816876] > 5000 nM

Enter reported IC50 observed with GSK3α (GST-full length GSK3α) (Homo sapiens (Human), UniProt P49840) for C[C@@H]1CC(=O)C2=C(C1)Nc1n[nH]cc1[C@]2(C)c1ccccc1 [Compound 789331] > 5000 nM

Enter reported IC50 observed with GSK3α (GST-full length GSK3α) (Homo sapiens (Human), UniProt P49840) for CC[C@@]1(c2ccccc2)C2=C(C[C@@]3(CCOC3)CC2=O)Nc2n[nH]cc21 [Compound 816884] 100 to 1000 nM

Enter reported IC50 observed with GSK3α (GST-full length GSK3α) (Homo sapiens (Human), UniProt P49840) for CC[C@]1(c2cccc(-c3cnn4c3CCCC4)c2)C2=C(CC(C)(C)NC2=O)Nc2n[nH]cc21 [Compound 947410] ≤ 100 nM
